System Name: SARS-CoV-2 RBD (SARS-CoV-2, Wuhan-Hu-1, UniProt P0DTC2, biotinylated with an EZ-Link NHS-PEG4 biotinylation kit)
Experimental Protocol: BLI
Experimental Readout: fold improvement in binding affinity over VHH-72

Observe how each entry below is paired with its result.
| Binder | Test Result |
| --- | --- |
| Seq4 (VHH) VHH: QVQLQESGGGLVQAGGSLRLSCAASGRSFSEYAMGWFRQAPGKEREFVATISWSGRATYYTDSVKGRFTISRDNAKNTVYLQMNSLKPDDTAVYYCARAGYGVVVSEWDYDYDYWGQGTQVTVSS | > 2 fold |
| Seq6 (VHH) VHH: QVQLQESGGGLVQAGGSLRLSCAASGRLFSEYAMGWFRQAPGKEREFVATISWSGRSTYYTDSVKGRFTISRDNAKNTVYLQMNSLKPDDTAVYYCAKAGWGVVVSEWDYDYDYWGQGTQVTVSS | > 2 fold |

// next entry
Per the records, this binder ( Seq2 (VHH) VHH: QVQLQESGGGLVQAGGSLRLSCAASGRGFSEYAMGWFRQAPGKEREFVATISWSGGGTYYTDSVKGRFTISRDNAKNTVYLQMNSLKPDDTAVYYCARAGFGVWVSEWDYDYDYWGQGTQVTVSS ) has fold improvement in binding affinity over VHH-72 equal to > 2 fold
